B1: VH:VL chains; a variant is named by its letters at X, in order (parent)
chain 1: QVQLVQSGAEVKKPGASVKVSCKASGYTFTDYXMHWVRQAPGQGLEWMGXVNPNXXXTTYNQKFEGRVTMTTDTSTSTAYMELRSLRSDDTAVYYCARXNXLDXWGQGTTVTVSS
chain 2: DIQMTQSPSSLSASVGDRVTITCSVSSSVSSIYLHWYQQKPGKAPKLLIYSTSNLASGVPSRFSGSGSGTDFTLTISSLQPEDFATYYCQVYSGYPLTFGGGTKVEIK

Variants of: B1
Assay: yeast display scFab, FACS + sequencing

[
  {
    "var": "VTGGGDGS",
    "non-specific binding call": "no binding"
  },
  {
    "var": "DGGKNDGV",
    "non-specific binding call": "no binding"
  },
  {
    "var": "YAGGAYLY",
    "non-specific binding call": "no binding"
  },
  {
    "var": "YARAGYAV",
    "non-specific binding call": "binds"
  },
  {
    "var": "VRARGFVV",
    "non-specific binding call": "binds"
  },
  {
    "var": "YTAGSALV",
    "non-specific binding call": "no binding"
  },
  {
    "var": "YRTRDAGY",
    "non-specific binding call": "no binding"
  },
  {
    "var": "YRKRGAAA",
    "non-specific binding call": "binds"
  },
  {
    "var": "SEARSDWV",
    "non-specific binding call": "no binding"
  },
  {
    "var": "FRTGGAVA",
    "non-specific binding call": "binds"
  },
  {
    "var": "VETKGDWD",
    "non-specific binding call": "no binding"
  },
  {
    "var": "SKAGGDVD",
    "non-specific binding call": "no binding"
  },
  {
    "var": "YRRGGAGF",
    "non-specific binding call": "binds"
  },
  {
    "var": "AREGDDVA",
    "non-specific binding call": "no binding"
  },
  {
    "var": "YRKKGDLA",
    "non-specific binding call": "binds"
  },
  {
    "var": "DAARGDGV",
    "non-specific binding call": "no binding"
  },
  {
    "var": "FGAKTASF",
    "non-specific binding call": "no binding"
  },
  {
    "var": "DTTRDDSD",
    "non-specific binding call": "no binding"
  },
  {
    "var": "VAKADDWF",
    "non-specific binding call": "no binding"
  },
  {
    "var": "VRARGAAY",
    "non-specific binding call": "binds"
  },
  {
    "var": "AEARSDGA",
    "non-specific binding call": "no binding"
  },
  {
    "var": "VEAGDALV",
    "non-specific binding call": "no binding"
  },
  {
    "var": "ARGRGSAA",
    "non-specific binding call": "binds"
  },
  {
    "var": "YARETDVV",
    "non-specific binding call": "no binding"
  },
  {
    "var": "YRGKGYAA",
    "non-specific binding call": "binds"
  },
  {
    "var": "FRERGSWV",
    "non-specific binding call": "binds"
  },
  {
    "var": "YRGRGFVV",
    "non-specific binding call": "binds"
  },
  {
    "var": "YRERGAAF",
    "non-specific binding call": "binds"
  },
  {
    "var": "VRRRGAGV",
    "non-specific binding call": "binds"
  },
  {
    "var": "YEGGGDLV",
    "non-specific binding call": "no binding"
  },
  {
    "var": "ARGAGYGS",
    "non-specific binding call": "binds"
  },
  {
    "var": "SKAKGSGA",
    "non-specific binding call": "binds"
  },
  {
    "var": "YRTRDALV",
    "non-specific binding call": "no binding"
  },
  {
    "var": "YRAKGSLD",
    "non-specific binding call": "binds"
  },
  {
    "var": "YKGGGYGA",
    "non-specific binding call": "binds"
  },
  {
    "var": "YRKRGSVV",
    "non-specific binding call": "binds"
  },
  {
    "var": "VRTAASGD",
    "non-specific binding call": "binds"
  },
  {
    "var": "YKGRGSAY",
    "non-specific binding call": "binds"
  },
  {
    "var": "SKGENALY",
    "non-specific binding call": "no binding"
  },
  {
    "var": "SGRGNDAV",
    "non-specific binding call": "no binding"
  },
  {
    "var": "SKGRGAWV",
    "non-specific binding call": "binds"
  },
  {
    "var": "FREGSAVA",
    "non-specific binding call": "binds"
  },
  {
    "var": "VKKESSGF",
    "non-specific binding call": "binds"
  },
  {
    "var": "VKGRGAWY",
    "non-specific binding call": "binds"
  },
  {
    "var": "AREGDAGD",
    "non-specific binding call": "no binding"
  },
  {
    "var": "YKGKGAVA",
    "non-specific binding call": "binds"
  }
]
